Molecular target: HIV-1 Env of pseudovirus isolate MGRM-G-001 (subtype G) (HIV-1)
Assay: cell-based or functional assay
We label by threshold. Values of IC50 strictly beneath 0.04 µg/mL are label 1. Values of 0.04 µg/mL and up are label 0.

>  <binder>
PGT-130 (antibody, V domains shown) VH: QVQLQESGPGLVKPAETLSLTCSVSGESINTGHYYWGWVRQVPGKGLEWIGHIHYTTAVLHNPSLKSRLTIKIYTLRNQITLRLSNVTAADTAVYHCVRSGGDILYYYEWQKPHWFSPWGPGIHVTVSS VL: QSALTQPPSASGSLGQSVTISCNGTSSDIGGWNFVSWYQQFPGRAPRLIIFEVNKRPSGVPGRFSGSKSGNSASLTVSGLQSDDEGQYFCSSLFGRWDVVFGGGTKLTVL

>  <class>
label 1

$$$$
>  <binder>
PGT-136 (antibody, V domains shown) VH: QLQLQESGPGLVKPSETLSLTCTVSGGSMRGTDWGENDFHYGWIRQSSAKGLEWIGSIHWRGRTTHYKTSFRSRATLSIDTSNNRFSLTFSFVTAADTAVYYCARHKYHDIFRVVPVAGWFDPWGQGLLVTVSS VL: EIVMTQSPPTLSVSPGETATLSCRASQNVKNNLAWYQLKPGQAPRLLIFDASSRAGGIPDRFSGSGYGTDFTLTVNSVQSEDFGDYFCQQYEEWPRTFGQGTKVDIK

>  <class>
label 0

$$$$
>  <binder>
PGT-137 (antibody, V domains shown) VH: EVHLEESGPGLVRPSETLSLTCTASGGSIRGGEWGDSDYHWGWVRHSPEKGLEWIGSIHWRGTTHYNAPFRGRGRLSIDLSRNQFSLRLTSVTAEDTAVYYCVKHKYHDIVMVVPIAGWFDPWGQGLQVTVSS VL: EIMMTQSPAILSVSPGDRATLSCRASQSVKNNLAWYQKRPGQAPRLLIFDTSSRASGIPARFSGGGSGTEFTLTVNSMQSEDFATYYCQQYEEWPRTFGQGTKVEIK

>  <class>
label 0

$$$$
>  <binder>
PGT-127 (antibody, V domains shown) VH: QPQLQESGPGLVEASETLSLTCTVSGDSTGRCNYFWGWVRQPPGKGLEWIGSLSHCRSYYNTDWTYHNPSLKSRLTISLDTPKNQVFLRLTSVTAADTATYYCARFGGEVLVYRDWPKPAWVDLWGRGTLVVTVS VL: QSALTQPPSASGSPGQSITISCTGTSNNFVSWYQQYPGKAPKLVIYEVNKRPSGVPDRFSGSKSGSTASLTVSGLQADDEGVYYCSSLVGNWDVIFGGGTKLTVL

>  <class>
label 0

$$$$
>  <binder>
PGT-125 (antibody, V domains shown) VH: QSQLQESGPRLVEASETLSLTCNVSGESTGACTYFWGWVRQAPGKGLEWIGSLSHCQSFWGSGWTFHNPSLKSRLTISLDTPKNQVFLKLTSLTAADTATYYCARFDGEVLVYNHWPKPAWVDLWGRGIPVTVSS VL: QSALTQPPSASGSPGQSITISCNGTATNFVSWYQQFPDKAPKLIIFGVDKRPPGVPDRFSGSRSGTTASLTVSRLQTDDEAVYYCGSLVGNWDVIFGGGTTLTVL

>  <class>
label 1

$$$$
>  <binder>
PGT-126 (antibody, V domains shown) VH: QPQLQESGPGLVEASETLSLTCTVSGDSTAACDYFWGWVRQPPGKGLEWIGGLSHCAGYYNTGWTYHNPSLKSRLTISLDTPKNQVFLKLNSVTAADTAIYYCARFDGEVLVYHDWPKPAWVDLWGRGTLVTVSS VL: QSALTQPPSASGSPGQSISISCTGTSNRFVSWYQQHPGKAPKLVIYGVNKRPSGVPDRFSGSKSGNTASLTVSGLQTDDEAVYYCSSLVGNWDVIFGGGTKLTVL

>  <class>
label 1

$$$$
